- measured target: KDM4C (Homo sapiens, UniProt Q9H3R0)
- Construct: Full length of KDM5B and KDM4C protein were purchased from Active Motif; purchased Active Motif 31858
- Sequence (Q9H3R0 whole entry): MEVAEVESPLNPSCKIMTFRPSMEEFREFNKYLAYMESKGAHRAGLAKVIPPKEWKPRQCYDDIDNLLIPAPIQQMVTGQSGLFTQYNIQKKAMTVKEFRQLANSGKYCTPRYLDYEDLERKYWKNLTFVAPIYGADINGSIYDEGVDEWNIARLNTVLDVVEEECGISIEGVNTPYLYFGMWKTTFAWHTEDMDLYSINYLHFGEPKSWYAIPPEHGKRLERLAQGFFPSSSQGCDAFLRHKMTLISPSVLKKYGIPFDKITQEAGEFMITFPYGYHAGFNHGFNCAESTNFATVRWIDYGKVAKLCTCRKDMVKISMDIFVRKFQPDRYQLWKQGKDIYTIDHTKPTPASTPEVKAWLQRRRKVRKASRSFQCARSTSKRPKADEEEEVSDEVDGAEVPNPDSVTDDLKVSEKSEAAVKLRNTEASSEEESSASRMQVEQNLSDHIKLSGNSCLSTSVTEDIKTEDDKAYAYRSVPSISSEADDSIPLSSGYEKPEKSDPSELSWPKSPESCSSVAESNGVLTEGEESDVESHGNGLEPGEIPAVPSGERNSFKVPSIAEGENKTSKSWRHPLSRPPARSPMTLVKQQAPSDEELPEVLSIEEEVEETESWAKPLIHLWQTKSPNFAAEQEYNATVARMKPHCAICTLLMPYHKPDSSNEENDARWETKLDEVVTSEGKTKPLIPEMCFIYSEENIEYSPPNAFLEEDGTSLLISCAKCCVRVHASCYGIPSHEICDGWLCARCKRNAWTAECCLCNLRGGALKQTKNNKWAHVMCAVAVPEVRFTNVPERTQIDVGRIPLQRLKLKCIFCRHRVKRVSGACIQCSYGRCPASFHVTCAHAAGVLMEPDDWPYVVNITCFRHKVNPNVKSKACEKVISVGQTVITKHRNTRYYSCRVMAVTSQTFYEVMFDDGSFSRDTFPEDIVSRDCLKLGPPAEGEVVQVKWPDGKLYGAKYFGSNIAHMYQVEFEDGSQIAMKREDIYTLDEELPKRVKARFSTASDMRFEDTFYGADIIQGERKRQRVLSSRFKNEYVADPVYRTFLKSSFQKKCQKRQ
- test method notes: KDM4C AlphaScreen assay
- Type: biochemical
- experimental parameters: AlphaScreen; full length KDM4C 0.2 nM; biotinylated H3K9Me3 peptide 3 nM; 30 minutes at room temperature
Recorded pIC50 for the following molecules
Scale: pIC50 equals -log10([C]), with [C] in mol/L.

Reference set, count: 8
{"columns": ["structure as smiles", "measured target", "pIC50"],
 "data": [
  ["CC(C)c1c(O)nc(-n2ccnc2)nc1-c1ccc(C(=O)NCCN(C)C)nc1", "KDM4C (Homo sapiens, UniProt Q9H3R0)", 6.12],
  ["CC(C)c1c(O)nc(-n2ccnc2)nc1-c1cnn(CC(=O)O)c1", "KDM4C (Homo sapiens, UniProt Q9H3R0)", 5.13],
  ["COCCNC(=O)Cn1cc(-c2nc(-n3ccnc3)nc(O)c2C(C)C)cn1", "KDM4C (Homo sapiens, UniProt Q9H3R0)", 5.51],
  ["CC(C)c1c(O)nc(-c2cncs2)nc1-c1cnn(Cc2ccccc2)c1", "KDM4C (Homo sapiens, UniProt Q9H3R0)", 4.95],
  ["CC(C)c1c(O)nc(-n2ccnc2)nc1OCc1ccccc1", "KDM4C (Homo sapiens, UniProt Q9H3R0)", 5.84],
  ["COC(=O)COc1nc(-n2ccnc2)nc(O)c1C(C)C", "KDM4C (Homo sapiens, UniProt Q9H3R0)", 5.88],
  ["CC(C)c1c(O)nc(-n2ccnc2)nc1-c1cnn(C2CCOCC2)c1", "KDM4C (Homo sapiens, UniProt Q9H3R0)", 6.13],
  ["CC(C)c1c(O)nc(-n2ccnc2)nc1-c1cnn(CC(=O)NCCN2CCCC2)c1", "KDM4C (Homo sapiens, UniProt Q9H3R0)", 6.67]
]}

Here is the next item to consider.
// query pIC50 value for entry CC(C)c1c(O)nc(-n2ccnc2)nc1OCCC1CCN(C)CC1
5.92
